Values from PubChem BioAssay (Tox21)

Biological target: Progesterone receptor (Homo sapiens) (UniProt P06401)
Sequence (P06401 whole entry, looked up): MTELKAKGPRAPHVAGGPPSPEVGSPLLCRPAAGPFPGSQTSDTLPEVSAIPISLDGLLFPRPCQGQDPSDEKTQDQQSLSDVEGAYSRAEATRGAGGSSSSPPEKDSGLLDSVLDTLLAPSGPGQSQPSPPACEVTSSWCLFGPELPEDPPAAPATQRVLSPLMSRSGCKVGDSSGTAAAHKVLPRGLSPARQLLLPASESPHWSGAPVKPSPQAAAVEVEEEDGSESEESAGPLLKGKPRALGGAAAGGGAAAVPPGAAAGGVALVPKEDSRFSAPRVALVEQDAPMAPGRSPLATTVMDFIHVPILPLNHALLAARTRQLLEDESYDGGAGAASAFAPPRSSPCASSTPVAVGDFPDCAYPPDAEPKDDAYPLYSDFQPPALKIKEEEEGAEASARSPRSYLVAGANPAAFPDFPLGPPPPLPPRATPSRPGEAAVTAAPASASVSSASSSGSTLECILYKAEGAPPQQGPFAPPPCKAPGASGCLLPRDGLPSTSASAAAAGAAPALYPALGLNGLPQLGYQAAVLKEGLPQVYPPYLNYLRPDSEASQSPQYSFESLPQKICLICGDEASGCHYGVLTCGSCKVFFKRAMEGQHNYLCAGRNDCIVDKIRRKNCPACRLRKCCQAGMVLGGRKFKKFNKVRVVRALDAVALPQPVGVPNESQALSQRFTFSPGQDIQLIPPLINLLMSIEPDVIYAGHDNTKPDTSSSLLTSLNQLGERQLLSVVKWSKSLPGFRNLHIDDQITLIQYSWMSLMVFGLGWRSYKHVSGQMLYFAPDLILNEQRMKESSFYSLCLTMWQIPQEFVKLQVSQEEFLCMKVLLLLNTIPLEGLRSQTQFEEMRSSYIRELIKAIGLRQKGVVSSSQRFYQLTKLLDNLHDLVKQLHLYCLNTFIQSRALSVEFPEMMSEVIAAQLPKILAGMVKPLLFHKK
Test: qHTS assay to identify small molecule antagonists of the progesterone receptor (PR) signaling pathway (AID 1346795); note: % is set by controls: 0 for no effect and ±100 for the full control effect
Details: PR-UAS-bla HEK293T, beta-lactamase FRET ratio, 16 h; series mostly up to 92.4 µM
Source text: National Center for Advancing Translational Sciences [NCATS] NIH Chemical Genomics Center [NCGC] U.S. Environmental Protection Agency [EPA] National Institutes of Environmental Health Sciences [NIEHS] National Toxicology Program [NTP] U.S. Food and Drug Administration [FDA] Progesterone receptor (PR), a nuclear hormone receptor, plays an important role in development, metabolic homeostasis and reproduction. […]
Records with an inconclusive call do not appear. Activity calls are given as the source filed them. Calls come from the whole dose curve; as a rule, active = well fitted inhibition curve with a large enough effect in the signal ratio in the repeat runs (not every such curve was filed as active); inconclusive = weak or mixed curves; inactive = flat fitted curve, though single readings scatter; the % refers to the signal ratio.
ENDPOINT_LABEL: activity change, negative = inhibition

>>> reported_value("CC(C)(C)c1ccc(-c2ccc(C(C)(C)C)cc2)cc1")
"inactive"
>>> reported_value("NCCCC[C@H](N[C@@H](CCc1ccccc1)C(=O)O)C(=O)N1CCC[C@H]1C(=O)O")
"inactive"
>>> reported_value("CC1(C)[C@@H]2CC[C@@]1(C)[C@H](O)C2")
"inactive"
>>> reported_value("CC1=NS(=O)(=O)c2cc(Cl)ccc2N1")
"inactive"
>>> reported_value("C=CC(=O)OCCCl")
"inactive"
>>> reported_value("N[C@@H](CCC(=O)O)C(=O)O")
"inactive"
>>> reported_value("C1CCC2(CCCCO2)OC1")
"inactive"
>>> reported_value("CC(=O)c1cnccn1")
"inactive"
>>> reported_value("OCCc1ccccn1")
"inactive"
>>> reported_value("c1coc(CNc2ncnc3nc[nH]c23)c1")
"inactive"
>>> reported_value("COc1ccnc(CS(=O)c2nc3cc(OC(F)F)ccc3[nH]2)c1OC (configuration not stated)")
"inactive"
>>> reported_value("CCCCCCCCCCCCSC")
"inactive"
>>> reported_value("O=S(=O)(O)c1cccc2c(S(=O)(=O)O)cccc12")
"inactive"
>>> reported_value("CCOC(=O)COC(=O)c1ccccc1C(=O)OCC")
"inactive"
>>> reported_value("Cc1ccccc1N=C(N)N=C(N)N")
"inactive"
>>> reported_value("CCCCCCCCCCOc1cc2c(=O)c(C(=O)OCC)c[nH]c2cc1OCC")
"-0.779% [at 8.39 µM] (inactive)"
>>> reported_value("C=C(C)C(=O)OCC1CCCO1 (configuration not stated)")
"inactive"
>>> reported_value("Nc1ccn([C@@H]2O[C@H](CO)[C@@H](O)C2O)c(=O)n1 (some centres not stated)")
"inactive"
>>> reported_value("CCN[C@@H]1C[C@H](N)[C@@H](OC2OC(CN)=CCC2N)[C@H](O)[C@H]1O[C@H]1OC[C@](C)(O)[C@H](NC)[C@H]1O (some centres not stated)")
"9.29% [at 0.348 µM] (inactive)"
>>> reported_value("CC(CO)(CO)[N+](=O)[O-]")
"inactive"
>>> reported_value("CC1=CC(=O)[C@H]2C[C@@H]1C2(C)C")
"inactive"
>>> reported_value("CN1CCC(=C2c3ccccc3CCc3cccnc32)CC1")
"inactive"
>>> reported_value("C[N+]1(C)CCCC(OC(=O)C(O)(c2ccccc2)c2ccccc2)C1 (configuration not stated)")
"inactive"
>>> reported_value("CCCCOCCOC(=O)CCCCCCCCC(=O)OCCOCCCC")
"inactive"
>>> reported_value("C=CC(C)(CCC=C(C)C)OC(=O)CC (configuration not stated)")
"inactive"
>>> reported_value("CNCC(O)c1ccc(O)c(O)c1 (configuration not stated)")
"inactive"
>>> reported_value("CCO[Si](OCC)(OCC)c1ccccc1")
"inactive"

====

Assay: qHTS assay to test for compound auto fluorescence at 460 nm (blue) in HepG2 cells (AID 720687); note: % is set by controls: 0 for no effect and ±100 for the full control effect
Details: autofluorescence 405/460 nm, 1 h; series mostly up to 91.3 µM
The source made the active and inactive calls. Calls come from the whole dose curve; as a rule, active = well fitted curve in the direction sought with a large enough effect in the repeat runs; inconclusive = weak or mixed curves; inactive = flat fitted curve, though single readings scatter.
ENDPOINT_LABEL: fluorescence, % of fluorescent control

>>> reported_value("CCCCCCC#CC(=O)OC")
"inactive"
>>> reported_value("CN(C)[C@@H]1C(=O)C(C(=O)NCN2CCCC2)=C(O)[C@@]2(O)C(=O)C3=C(O)c4c(O)cccc4[C@@](C)(O)C3C[C@@H]12 (stereo partly drawn)")
"inactive"
>>> reported_value("CCN(CC#N)c1cccc(C)c1")
"inactive"
>>> reported_value("CC(C(=O)O)c1cccc(Oc2ccccc2)c1 (stereo not drawn)")
"-0.0143% [at 18.6 µM] (inactive)"
>>> reported_value("NS(=O)(=O)Cc1noc2ccccc12")
"inactive"
>>> reported_value("[O-][n+]1cccc(CO)c1")
"inactive"
>>> reported_value("CCCCCCCCCCCCCCC(=O)O")
"inactive"
>>> reported_value("CCCn1cc[n+](C)c1C")
"inactive"
>>> reported_value("Cc1ccc(C(=O)c2ccc(CC(=O)O)n2C)cc1")
"-0.0013% [at 18.6 µM] (inactive)"
>>> reported_value("CN(C)C(=O)Oc1cccc([N+](C)(C)C)c1")
"inactive"
>>> reported_value("O=S(=O)(O)c1cc(O)c(O)c(S(=O)(=O)O)c1")
"inactive"
>>> reported_value("CC1OC1C1CCC2(C)OC2C1 (stereo not drawn)")
"inactive"
>>> reported_value("Nc1ccn([C@@H]2O[C@H](CO)[C@@H](O)[C@@H]2O)c(=O)n1")
"inactive"

====

Experiment: qHTS assay to identify small molecule antagonists of the retinoid-related orphan receptor gamma (ROR-gamma) signaling pathway - cell viability counter screen (AID 1159520); note: % is set by controls: 0 for no effect and ±100 for the full control effect; nearly all actives have a fitted effect of over 50% in size
Settings: Tet-on RORgamma CHO cells viability, ATP luminescence, 16 h; series mostly up to 92.4 µM
Results filed as inconclusive are left out. Active and inactive are the calls of the source. The call rests on the fitted dose curve; in most records, active means well fitted cell-killing curve with a large enough effect in the repeat runs; inconclusive means weak or mixed curves, or effect the other way; inactive means no such curve, though single readings can be large or run the other way.
ENDPOINT_LABEL: activity, negative = cytotoxicity

>>> reported_value("C[N+]1(C)CCCC(OC(=O)C(O)(c2ccccc2)c2ccccc2)C1 (configuration not stated)")
"inactive"
>>> reported_value("CCCC(=O)O[C@]1(C(=O)CC)CC[C@H]2[C@@H]3CCC4=CC(=O)CC[C@]4(C)[C@H]3[C@@H](O)C[C@@]21C")
"inactive"
>>> reported_value("COc1cc2c(cc1OC)-c1cc3ccc(OC)c(OC)c3c[n+]1CC2")
"inactive"
>>> reported_value("NO")
"inactive"
>>> reported_value("C[C@H]1C[C@H]2[C@@H]3CCC4=CC(=O)C=C[C@]4(C)[C@H]3C(=O)C[C@]2(C)[C@@]1(O)C(=O)CO")
"inactive"
>>> reported_value("CCOc1c(N2CCOCC2)cnn(C)c1=O")
"inactive"
>>> reported_value("CC(=O)O[C@@]12CO[C@@H]1C[C@H](O)[C@@]1(C)C(=O)[C@H](O)C3=C(C)[C@@H](OC(=O)[C@H](O)[C@@H](NC(=O)OC(C)(C)C)c4ccccc4)C[C@@](O)([C@@H](OC(=O)c4ccccc4)[C@H]21)C3(C)C")
"inactive"
>>> reported_value("C=CCOCC(O)CO (configuration not stated)")
"inactive"
>>> reported_value("CCC1C(=O)OCC1Cc1cncn1C (configuration not stated)")
"inactive"
>>> reported_value("CCOC(=O)C(=O)CCCCCCl")
"inactive"
>>> reported_value("CN(C)CCN(C)CCN(C)C")
"inactive"
>>> reported_value("COc1cc(C)nc(-n2nc(C)cc2OC)n1")
"inactive"
>>> reported_value("C=CCCCCCCCCC(=O)OCC")
"inactive"
>>> reported_value("CCCCOC(=O)CCC(C)=O")
"inactive"
>>> reported_value("CC(N)C12CC3CC(CC(C3)C1)C2 (configuration not stated)")
"inactive"
>>> reported_value("[O-][n+]1cccc(CO)c1")
"inactive"
>>> reported_value("CC1OC1C1CCC2(C)OC2C1 (configuration not stated)")
"inactive"
>>> reported_value("CCCOC(=O)CC")
"inactive"
>>> reported_value("C[N+]1(C)[C@@H]2CC(OC(=O)[C@H](CO)c3ccccc3)C[C@H]1[C@@H]1O[C@@H]12 (some centres not stated)")
"inactive"
>>> reported_value("CCOC(=O)C1=NOC(c2ccccc2)(c2ccccc2)C1")
"inactive"
>>> reported_value("CC1=NN(c2cc(S(=O)(=O)O)ccc2Cl)C(=O)C1N=Nc1ccccc1 (configuration not stated)")
"inactive"
>>> reported_value("Cc1ccc(C(=O)c2ccccc2)cc1")
"inactive"
>>> reported_value("CCCCc1nc(Cl)c(CO)n1Cc1ccc(-c2ccccc2-c2nn[nH]n2)cc1")
"inactive"
>>> reported_value("c1ccc2sc(SN3CCOCC3)nc2c1")
"inactive"
>>> reported_value("CNCC(O)c1ccc(O)c(O)c1 (configuration not stated)")
"inactive"
>>> reported_value("CCN[C@H]1C[C@H](C)S(=O)(=O)c2sc(S(N)(=O)=O)cc21")
"inactive"
>>> reported_value("O=C(CO)[C@@H](O)[C@H](O)[C@H](O)CO")
"inactive"
